The measurements presented in this section are drawn from PubChem BioAssay (NCATS).

# study-target: Retinaldehyde dehydrogenase 3 (Homo sapiens) (UniProt P47895)
# assay-explanation: qHTS for Inhibitors of the Aldehyde Dehydrogenase Family (ALDH1A3) Confirmatory screens (AID 2061311); note: nearly all actives have a fitted effect of over 60% in size
# protocol-conditions: ALDH inhibition qHTS; series mostly up to 46 µM
Records with an inconclusive call do not appear. The source made the active and inactive calls. Calls come from the whole dose curve; as a rule, active = well fitted inhibition curve with a large enough effect; inconclusive = small, poorly fitted or top-dose-only effect; inactive = no such curve, though single readings can be large or run the other way. Residues, ends and D or L forms follow the SMILES beside them. *: point of attachment. Cbz = O=C(OCc1ccccc1)*; CH2Cl = ClC*
Just give me one of these, please: active, inactive

Could you kindly confirm the outcome this assay logged for CC(=O)Nc1ccc(Nc2nc3c(S(=O)(=O)c4cccc(Cl)c4)nnn3c3ccsc23)cc1 ?
active

Could you kindly confirm the outcome this assay logged for CC1=CC2=C(C)C(=O)C(C)(O)C(O)C2CO1 (stereo unspecified) ?
active

Could you kindly confirm the outcome this assay logged for O=C(O)c1ccc(N2C(=O)/C(=C/c3ccc(-c4ccc([N+](=O)[O-])cc4)o3)C=C2c2ccccc2)cc1 ?
active

Could you kindly confirm the outcome this assay logged for COc1cc(CC2COC(c3ccc(OC4OC(CO)C(O)C(O)C4O)c(OC)c3)C2CO)ccc1O (stereo unspecified) ?
active

Could you kindly confirm the outcome this assay logged for CC(=O)c1ccc(N2CCN(S(=O)(=O)c3ccc4c(c3)C(C)(C)C(=O)N4)CC2)cc1 ?
active

Could you kindly confirm the outcome this assay logged for O=c1ccc2c(OCCCCc3ccccc3)c3ccoc3cc2o1 ?
active

Could you kindly confirm the outcome this assay logged for CN(CCCNC(=O)c1ccc2nc3c(c(Cl)c2c1)CCCC3)Cc1ccccc1 ?
active

Could you kindly confirm the outcome this assay logged for COc1ccc(Nc2ncc(C(=O)N3CCN(c4ccc(F)cc4)CC3)c3ccccc23)cc1 ?
inactive

Could you kindly confirm the outcome this assay logged for CCCCNC(=O)[C@@H]1Cc2ccccc2N1C(=O)[C@@H](N)CC ?
inactive

Could you kindly confirm the outcome this assay logged for CC(C)Nc1cc(-c2c[nH]c(C(=O)N[C@H](CO)c3cccc(Cl)c3)c2)c(Cl)cn1 ?
inactive

Could you kindly confirm the outcome this assay logged for O=C(c1cccc(Cl)c1F)N1CCN(Cc2cccc(Nc3nccs3)n2)CC1 ?
active

Could you kindly confirm the outcome this assay logged for COc1cccc(-c2nc(SCc3ccc(C)cc3)n3[nH]c(=O)cc3n2)c1 ?
active

Could you kindly confirm the outcome this assay logged for CO/N=C(/C(=O)N[C@@H]1C(=O)N2C(C(=O)O)=C(CSC(=O)c3ccco3)CS[C@H]12)c1csc(N)n1 ?
active

Could you kindly confirm the outcome this assay logged for CCOc1cc(N2CCC(O)CC2)ccc1Nc1ncc2c(n1)N(C1CCCC1)CCC(=O)N2C ?
active

Could you kindly confirm the outcome this assay logged for C=C1C(=O)O[C@H]2C[C@@H](C)[C@@H]3CCC(=O)[C@@]3(C)C[C@H]12 ?
active

Could you kindly confirm the outcome this assay logged for COc1ccccc1N1CCN(CCN2C(=O)CC3(CCCC3)CC2=O)CC1 ?
inactive

Could you kindly confirm the outcome this assay logged for CC/C=C\[C@H](O)[C@H](O)C1=C(C)C(=O)[C@]2(O1)C(=O)N[C@@](O)(C(=O)c1ccccc1)[C@@H]2O ?
inactive

Could you kindly confirm the outcome this assay logged for Cc1ccccc1C[C@H](C(=O)O)N1C(=O)c2ccc(C(=O)O)cc2C1=O ?
inactive

Could you kindly confirm the outcome this assay logged for COc1ccnc(CCc2nc3ncccc3[nH]2)c1 ?
inactive

Could you kindly confirm the outcome this assay logged for N#Cc1ccc(-c2ccc(CNc3ccc(N4CCC(C#N)CC4)cc3)o2)cc1 ?
active

Could you kindly confirm the outcome this assay logged for Brc1ccc(-c2csc(N3CCC(c4nn[nH]n4)CC3)n2)cc1 ?
inactive

Could you kindly confirm the outcome this assay logged for c1cncc(-c2ccc(CNc3nc(C4CCCC4)nc4ccccc34)cc2)c1 ?
active

Could you kindly confirm the outcome this assay logged for CCOC(=O)c1ccoc1-c1ccc2ncnc(NCc3ncc[nH]3)c2c1 ?
inactive

Could you kindly confirm the outcome this assay logged for Cc1ccc2c(c1)-c1c(cnn1CC(=O)N1CCN(c3cccc(C(F)(F)F)c3)CC1)CO2 ?
inactive

Could you kindly confirm the outcome this assay logged for COc1ccc(CNC(=O)Nc2ncc([N+](=O)[O-])s2)cc1 ?
active

Could you kindly confirm the outcome this assay logged for Cc1scc2c1N(C(=O)CN1CCN(C)CC1)c1ccccc1NC2=O ?
inactive

Could you kindly confirm the outcome this assay logged for Oc1ccc(Oc2ccccc2F)c2cccnc12 ?
active

Could you kindly confirm the outcome this assay logged for COc1ccc(C2=Nn3c(nnc3-c3ccccc3C)SC2)cc1 ?
inactive

Could you kindly confirm the outcome this assay logged for Cc1ccc(CN2CCNCC2)cc1NC(=O)CNc1ccc(F)c(F)c1 ?
inactive

Could you kindly confirm the outcome this assay logged for N#Cc1ccc2[nH]cc(CCCCN3CCN(c4ccc5oc(C(N)=O)cc5c4)CC3)c2c1 ?
active

Could you kindly confirm the outcome this assay logged for COc1ccnc(NC(=S)N2CCN(c3cccc(C(F)(F)F)c3)CC2)c1 ?
active

Could you kindly confirm the outcome this assay logged for CC(C)C[C@H](NC(=O)CNC(=O)OCc1ccccc1)C(=O)N[C@@H](Cc1ccccc1)C(=O)CCl (Cbz-Gly-Leu-Phe-CH2Cl) ?
inactive

Could you kindly confirm the outcome this assay logged for CC(=O)CC1CCC(C(C)C(=O)OCC(O)CO)O1 (stereo unspecified) ?
active

Could you kindly confirm the outcome this assay logged for CN(CCCOc1ccc(Cc2ccccc2)cc1)CCC(=O)O ?
inactive

Could you kindly confirm the outcome this assay logged for CCC(=O)C1CCCN(C(=O)CC(c2ccc3c(c2)OCO3)c2c(O)cc(OC)cc2OC)C1 (stereo unspecified) ?
inactive

Could you kindly confirm the outcome this assay logged for Cc1cc(O)c2c(c1)C(=O)c1cc(O)cc(O)c1C2=O ?
active

Could you kindly confirm the outcome this assay logged for CC1=C(C)C(=O)C(CCCCC#CCCCC#CCO)=C(C)C1=O ?
active

Could you kindly confirm the outcome this assay logged for Oc1ccc(CC2NCCc3cc(O)c(O)cc32)cc1 (stereo unspecified) ?
inactive

Could you kindly confirm the outcome this assay logged for CNC(=O)Nc1ccc(OC)c(NC(=O)NC(=O)c2cc(F)c(F)cc2Cl)c1 ?
inactive

Could you kindly confirm the outcome this assay logged for CC(C)(C)OC(=O)N1CCN(c2cnc(NCc3ccc(-c4ccc(C#N)cc4)o3)nc2)CC1 ?
active

Could you kindly confirm the outcome this assay logged for CC(=O)Nc1sc2c(c1-c1cccc(F)c1)CCNC2 ?
inactive
